- assay-comment: self-splicing fitness, log relative to wild type (ln ratio); higher = more splicing; Tetrahymena group I intron in knt gene, E. coli kanamycin selection, DiMSum; sequences stand for … in CUCUCU…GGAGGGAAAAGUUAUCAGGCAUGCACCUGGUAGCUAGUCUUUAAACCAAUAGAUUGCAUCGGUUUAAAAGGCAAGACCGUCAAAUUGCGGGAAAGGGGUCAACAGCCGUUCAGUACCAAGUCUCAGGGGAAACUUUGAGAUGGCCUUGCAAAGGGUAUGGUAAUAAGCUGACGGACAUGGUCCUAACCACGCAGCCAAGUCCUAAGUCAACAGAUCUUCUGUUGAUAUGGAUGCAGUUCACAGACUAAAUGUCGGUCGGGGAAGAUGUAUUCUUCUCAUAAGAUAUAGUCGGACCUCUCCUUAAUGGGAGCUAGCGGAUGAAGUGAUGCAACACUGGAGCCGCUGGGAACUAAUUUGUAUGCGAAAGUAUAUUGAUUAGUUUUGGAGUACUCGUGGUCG;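 note: selection with 25 µg/mL kanamycin versus none on LB agar overnight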
- condition-label: 30 °C
Each item that follows carries a reported self-splicing fitness (ln).
Respond numerically, and do not add a unit to the figure.

Check out these entries, answers already filled in.
AGGAAGCAAUAUUACGACGC | -0.0969
GCAGAGCAAUAUUACGUGGG | -3.55
GCGAAGCAAUAUUACGAUGU | -2.82

[in] Value lookup for self-splicing fitness (ln); key = `ACGCAGCAAUAUUACGUGGG`
[out] -3.55

[in] How about this sequence: `CCGAAGCAAUAUUACGGCCU`
[out] -3.94

[in] How about this sequence: `CGCAAGCAAUAUUACGGGUU`
[out] -4.62

----------
- assay-comment: self-splicing fitness, log relative to wild type (ln ratio); higher = more splicing; Tetrahymena group I intron in knt gene, E. coli kanamycin selection, DiMSum; sequences stand for … in CUCUCU…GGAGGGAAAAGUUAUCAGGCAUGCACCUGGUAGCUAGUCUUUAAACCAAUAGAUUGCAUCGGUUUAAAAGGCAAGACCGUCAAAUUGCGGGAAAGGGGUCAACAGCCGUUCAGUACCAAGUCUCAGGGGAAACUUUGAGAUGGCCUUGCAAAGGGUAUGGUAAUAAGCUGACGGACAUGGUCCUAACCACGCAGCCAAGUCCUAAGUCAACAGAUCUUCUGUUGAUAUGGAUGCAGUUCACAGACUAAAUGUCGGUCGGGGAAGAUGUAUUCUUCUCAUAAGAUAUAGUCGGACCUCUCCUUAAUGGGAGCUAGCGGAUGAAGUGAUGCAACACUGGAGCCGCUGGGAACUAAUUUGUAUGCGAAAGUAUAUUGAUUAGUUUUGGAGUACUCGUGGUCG
- condition-label: 37 °C
Each item that follows carries a reported self-splicing fitness (ln).
Respond numerically, and do not add a unit to the figure.

Check out these entries, answers already filled in.
UUGAAGCAAUAUUACGUAGG | -0.153
UUAGAGCAAUAUUACGCUGG | -0.227
UCUGAGCAAUAUUACGCUCA | -2.09
CGCUAGCAAUAUUACGGGGG | -2.43
GUCUAGCAAUAUUACGCAAG | -1.66

[in] Value lookup for self-splicing fitness (ln); key = `AAUUAGCAAUAUUACGACCU`
[out] 0.333

[in] How about this sequence: `AGCCAGCAAUAUUACGUUUU`
[out] -2.06

[in] How about this sequence: `CAGAAGCAAUAUUACGAGAG`
[out] -1.98

----------
Each item that follows carries a reported self-splicing fitness (ln).
- assay-comment: self-splicing fitness, log relative to wild type (ln ratio); higher = more splicing; Tetrahymena group I intron in knt gene, E. coli kanamycin selection, DiMSum; sequences stand for … in CUCUCU…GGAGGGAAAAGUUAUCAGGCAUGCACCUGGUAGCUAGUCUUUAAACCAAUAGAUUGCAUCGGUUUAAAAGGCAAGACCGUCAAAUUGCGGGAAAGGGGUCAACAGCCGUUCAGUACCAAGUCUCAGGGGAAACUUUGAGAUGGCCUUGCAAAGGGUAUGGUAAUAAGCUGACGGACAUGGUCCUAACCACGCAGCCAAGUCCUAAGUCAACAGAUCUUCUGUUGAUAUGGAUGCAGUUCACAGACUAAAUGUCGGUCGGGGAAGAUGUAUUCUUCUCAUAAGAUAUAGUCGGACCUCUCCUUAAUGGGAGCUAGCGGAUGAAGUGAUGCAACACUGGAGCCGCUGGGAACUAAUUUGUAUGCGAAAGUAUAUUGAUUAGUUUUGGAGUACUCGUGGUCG
- condition-label: 37 °C
Respond numerically, and do not add a unit to the figure.

Check out these entries, answers already filled in.
UCUUAGCAAUAUUACGUUUC | -2.8
AUAUAGCAAUAUUACGAAGA | -1.98
UCCAAGCAAUAUUACGACAU | -2.31
AUUCAGCAAUAUUACGUUUA | -0.911

[in] Value lookup for self-splicing fitness (ln); key = `UGGCAGCAAUAUUACGUAUA`
[out] 0.00255

[in] How about this sequence: `CGGAAGCAAUAUUACGGGAG`
[out] -2.02

[in] How about this sequence: `GACGAGCAAUAUUACGCCCA`
[out] -2.17

[in] How about this sequence: `CAGUAGCAAUAUUACGACGU`
[out] -0.0577

----------
- assay-comment: self-splicing fitness, log relative to wild type (ln ratio); higher = more splicing; Tetrahymena group I intron in knt gene, E. coli kanamycin selection, DiMSum; sequences stand for … in CUCUCU…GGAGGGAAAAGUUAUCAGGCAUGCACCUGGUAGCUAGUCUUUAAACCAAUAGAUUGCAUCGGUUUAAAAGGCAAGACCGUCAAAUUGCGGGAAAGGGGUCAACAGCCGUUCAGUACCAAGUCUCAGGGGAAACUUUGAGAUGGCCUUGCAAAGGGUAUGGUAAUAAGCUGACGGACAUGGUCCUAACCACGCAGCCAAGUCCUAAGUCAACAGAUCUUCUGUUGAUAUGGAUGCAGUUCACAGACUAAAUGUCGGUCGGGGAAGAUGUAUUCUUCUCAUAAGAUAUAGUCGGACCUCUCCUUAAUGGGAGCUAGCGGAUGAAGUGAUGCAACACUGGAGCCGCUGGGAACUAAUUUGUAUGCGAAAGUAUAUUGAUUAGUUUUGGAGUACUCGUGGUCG
- condition-label: 30 °C
measured-parameter: self-splicing fitness (ln)
Respond numerically, and do not add a unit to the figure.

Check out these entries, answers already filled in.
CAGUAGCAAUAUUACGUGAU | -4.22
UGACAGCAAUAUUACGGGAC | -4.05
CAGAAGCAAUAUUACGGCAU | -3.35

[in] Value lookup for self-splicing fitness (ln); key = `UCGAAGCAAUAUUACGCCUG`
[out] -0.508

[in] How about this sequence: `CUAGAGCAAUAUUACGACAU`
[out] -3.92

[in] How about this sequence: `AUGUAGCAAUAUUACGUCUA`
[out] -1.25

[in] How about this sequence: `UUCGAGCAAUAUUACGUCGC`
[out] -2.09

[in] How about this sequence: `CACCAGCAAUAUUACGAAGG`
[out] -1.1

[in] How about this sequence: `UAAUAGCAAUAUUACGGUUA`
[out] -0.888

[in] How about this sequence: `AAGAAGCAAUAUUACGGCAC`
[out] -0.764

[in] How about this sequence: `CCGAAGCAAUAUUACGUGGC`
[out] -3.27

[in] How about this sequence: `CGGCAGCAAUAUUACGCCAG`
[out] -1.53

[in] How about this sequence: `GAAUAGCAAUAUUACGUAAG`
[out] -2.32

[in] How about this sequence: `GGCCAGCAAUAUUACGUAAC`
[out] -1.22

----------
- assay-comment: self-splicing fitness, log relative to wild type (ln ratio); higher = more splicing; Tetrahymena group I intron in knt gene, E. coli kanamycin selection, DiMSum; sequences stand for … in CUCUCU…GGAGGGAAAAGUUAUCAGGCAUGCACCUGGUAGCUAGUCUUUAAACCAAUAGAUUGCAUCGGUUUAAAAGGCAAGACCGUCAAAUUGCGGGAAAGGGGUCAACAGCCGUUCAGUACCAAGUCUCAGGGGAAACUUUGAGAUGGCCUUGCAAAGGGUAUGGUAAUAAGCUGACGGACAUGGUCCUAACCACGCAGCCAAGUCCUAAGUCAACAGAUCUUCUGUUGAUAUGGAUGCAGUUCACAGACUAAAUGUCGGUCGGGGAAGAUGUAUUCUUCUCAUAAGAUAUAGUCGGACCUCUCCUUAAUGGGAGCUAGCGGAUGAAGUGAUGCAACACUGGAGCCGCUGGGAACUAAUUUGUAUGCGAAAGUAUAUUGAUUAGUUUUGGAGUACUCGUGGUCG
- condition-label: 37 °C
Grouping rule (self-splicing fitness (ln)): low = under -2, mid = from -2 up to -0.4, high = -0.4 and over

GUAUAGCAAUAUUACGGAAG | mid

[in] Consider `UAGCAGCAAUAUUACGAACU` . To which self-splicing fitness (ln) class does it belong?
[out] high

[in] How about this sequence: `AUAAAGCAAUAUUACGAGUC`
[out] low

[in] How about this sequence: `GCCAAGCAAUAUUACGGCAA`
[out] mid

[in] How about this sequence: `AAGAAGCAAUAUUACGCCCC`
[out] high

[in] How about this sequence: `AGCCAGCAAUAUUACGACCA`
[out] low

[in] How about this sequence: `GGCUAGCAAUAUUACGAUAA`
[out] mid

[in] How about this sequence: `GAGAAGCAAUAUUACGUUCA`
[out] high

[in] How about this sequence: `GCCCAGCAAUAUUACGCGUA`
[out] high
